# assay_explanation: HUVEC growth inhibition – cell-based, human, primary screen (AID 575);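 further: 100% = median of untreated cell wells with 0.1% DMSO on each plate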
# settings: HUVEC proliferation, CellTiter-Glo luminescence, 72 h; at 10 µM; hits give low values
reported_metric: viability (%)
The response must be a number in % with no trailing unit.

O=C(/C=C/c1ccccc1)c1ccccc1 ... 50.2

q: Consider the molecule shown here: Cc1ccc2[nH]c(=O)c(CN(CCc3ccccc3)Cc3nnnn3CC3CCCO3)cc2c1 (stereo unspecified) What is its recorded viability?
a: 77.1

q: Consider the molecule shown here: C=CCNC(=O)CNS(=O)(=O)c1ccc(F)cc1 What is its recorded viability?
a: 92.5

q: Consider the molecule shown here: COc1ccc(CNC(=O)Cn2nc(C(F)(F)F)c3c2CCC3)cc1 What is its recorded viability?
a: 103

q: Consider the molecule shown here: Cc1cc(C)c2c(N)c(C(=O)c3ccccc3)oc2n1 What is its recorded viability?
a: 80.2

q: Consider the molecule shown here: Cc1ccccc1-n1c(SCc2c(C)noc2C)nnc1-c1ccncc1 What is its recorded viability?
a: 87.5

====

# assay_explanation: growth inhibitors of H69AR lung tumor, primary screen, human, duplicate replicates (AID 580);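 further: 100% = mean luminescence of untreated wells and 0% = no signal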
# settings: H69AR lung tumor cells viability, ATP luminescence, 72 h; at 10 µM; hits give low values
# viability listing for each entry below
The response must be a number in % with no trailing unit.

Please review the entries below; each comes with its answer.
O=C(c1nn2cccnc2c1Cl)N1CCN(c2ccccc2)CC1 ... 108
CCCCSc1nnc([C@H](C)NC(=O)OC(C)(C)C)o1 ... 90.3
CC1Oc2ccccc2N(Cc2ccccc2Cl)C1=O (configuration not stated) ... 89.1
O=C1CN(C(=O)COC(=O)C23CC4CC(CC(O)(C4)C2)C3)c2ccccc2N1 ... 96.6
COc1cc2c(=O)nc3n(c2cc1OC)C(c1ccccc1)N=C(N)N3 (configuration not stated) ... 97.1

q: Consider the compound shown here: COc1ccc(OC)c(N(CC(=O)Nc2cccnc2)S(=O)(=O)c2ccc(OC)c(OC)c2)c1 What is its recorded viability?
a: 83.7

q: Consider the compound shown here: COc1cccc(CC(=O)Nn2c(C)nc3ccccc3c2=O)c1 What is its recorded viability?
a: 99.3

====

# assay_explanation: HUVEC growth inhibition – cell-based, human, primary screen (AID 575);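 further: 100% = median of untreated cell wells with 0.1% DMSO on each plate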
# settings: HUVEC proliferation, CellTiter-Glo luminescence, 72 h; at 10 µM; hits give low values
# viability listing for each entry below
The response must be a number in % with no trailing unit.

Cc1cc(Br)c(S(=O)(=O)n2nnc3ccccc32)cc1C ... 101
O=C(Nc1ccc(SC(F)F)cc1)c1ccc2nccnc2c1 ... 67
Cc1cc(NC(=O)c2cnn3c(C(F)F)cc(C4CC4)nc23)no1 ... 79.6
O=C(NCc1ccc2c(c1)OCO2)c1ccc(NS(=O)(=O)c2ccc3c(c2)OCCO3)cc1 ... 85.2
CSc1nc(N)nc(SCCS(=O)(=O)c2ccc(Cl)cc2)c1C#N ... 56.6

q: Consider the compound shown here: O=C1CCC(C(=O)N(Cc2ccco2)C2(C(=O)NC3CCCC3)CCCCC2)N1 (configuration not stated) What is its recorded viability?
a: 106

q: Consider the compound shown here: CC1(C)Cc2c(c(=S)nc(-c3ccccc3)n2CCO)CO1 What is its recorded viability?
a: 106

q: Consider the compound shown here: COC(=O)CCn1nnc(-c2ccc(C)cc2)n1 What is its recorded viability?
a: 109

q: Consider the compound shown here: COc1ccc(CC(=O)NCc2ccccc2)cc1S(=O)(=O)N1CCOCC1 What is its recorded viability?
a: 93.5

q: Consider the compound shown here: OC1(c2cccc(C(F)(F)F)c2)CCNCC1 What is its recorded viability?
a: 96.5
